test_target: SARS-COV-2 spike, Lambda variant (C.37) (SARS-COV-2, UniProt P0DTC2 14-1273)
experiment_description: cell-based or functional assay
experimental_readout: EC50, neutralization of spike pseudotyped virus (nM)

binder	recorded_value
AP1B6 Nb-huFc (Fc fusion) EVQLQASGGGFVQPGGSLRLSCAASGSAFQIYAMGWFRQAPGKEREFVSAISSTDSETDHYADSVKGRFTISRDNSKNTVYLQMNSLRAEDTATYYCAVNGFDYAHSKAGPQVYWGQGTQVTVSS	414
BP2A6 Nb-huFc (Fc fusion) EVQLQASGGGFVQPGGSLRLSCAASGQTFSHYIMGWFRQAPGKEREFVSAISAGQGHATYYADSVKGRFTISRDNSKNTVYLQMNSLRAEDTATYYCAKYQDTIAPLYWGQGTQVTVSS	883
AP1D4 Nb-huFc (Fc fusion) EVQLQASGGGFVQPGGSLRLSCAASGHTFDAHRMGWFRQAPGKEREFVSAISSWGQSSTYYADSVKGRFTISRDNSKNTVYLQMNSLRAEDTATYYCAQTDEGNQYVYWGQGTQVTVSS	490
AP1A5 Nb-huFc (Fc fusion) EVQLQASGGGFVQPGGSLRLSCAASGSTASHYTMGWFRQAPGKEREFVSAISSGRDHAKQYADSVKGRFTISRDNSKNTVYLQMNSLRAEDTATYYCAYEEINATQKDTLYWGQGTQVTVSS	79.1
AP1C3 Nb-huFc (Fc fusion) EVQLQASGGGFVQPGGSLRLSCAASGRTYRGYSMGWFRQAPGKEREFVSAISSWSDDWTAYADSVKGRFTISRDNSKNTVYLQMNSLRAEDTATYYCAWQYIDEIQYYWGQGTQVTVSS	0.02
